- Test Description: passive permeability, PAMPA, ADME assay (AID 1508612)
- Protocol Conditions: pH 7.4, 30.0 min, 50.0 µM
Assay Readout: Papp (×10⁻⁶ cm/s)

Compound	Assay Readout	Unit Name	Inequality Symbol	Measured Result
CN(Cc1ccccc1)C(=O)C1CCN(Cc2cccc3ccccc23)CC1	Papp	×10⁻⁶ cm/s	>	1000
CCc1ccc(NC(=O)c2[nH]c(C)c(C(C)=O)c2C)cc1[S+](=O)([O-])N1CCCCCC1	Papp	×10⁻⁶ cm/s	=	227
COc1ccc(-c2csc(N3CCC(C(N)=O)CC3)n2)cc1OC	Papp	×10⁻⁶ cm/s	=	270
S=c1[nH]c2ccccc2n1CCc1ccccc1	Papp	×10⁻⁶ cm/s	=	126
Cc1ccccc1C(=O)Nc1sc2c(c1C(=O)NCc1ccco1)CCC(C(C)(C)C)C2 (stereo unspecified)	Papp	×10⁻⁶ cm/s	=	167
NC(=O)C1CCN(c2nc(-c3cccc(Br)c3)cs2)CC1	Papp	×10⁻⁶ cm/s	=	788
COc1ncccc1-c1cc2[nH]ccc2c(C(=O)NCc2c(C)cc(C)[nH]c2=O)n1	Papp	×10⁻⁶ cm/s	=	472
Nc1ccc(-c2cccc3c(=O)cc(N4CCOCC4)oc23)cc1	Papp	×10⁻⁶ cm/s	=	65.7
Cc1cc(S(=O)(=O)Nc2cnccc2C(=O)Nc2nc(-c3ccccc3)cs2)c(C)o1	Papp	×10⁻⁶ cm/s	=	768
C[S+](=O)([O-])c1ccc(-c2nc(C(=O)N3CCOCC3)n3ccncc23)cc1	Papp	×10⁻⁶ cm/s	=	8.31
NC(=O)C1CCN(c2nc(-c3ccc(F)cc3)cs2)CC1	Papp	×10⁻⁶ cm/s	=	198
Cc1cnc(-c2ccccc2C2COC2)nc1NCc1ccc(-n2ccnn2)cc1	Papp	×10⁻⁶ cm/s	<	1
COc1c(O)ccc2c1CN1CCc3cc4c(cc3[C@@H]1C2)OCO4	Papp	×10⁻⁶ cm/s	>	1000
COCCOc1cnc2ccn([C@H](C)c3nnc4c(F)cc(-c5cnn(C)c5)cn34)c(=O)c2c1	Papp	×10⁻⁶ cm/s	=	15.1
NC(=O)C1CCN(c2nc(-c3cccc([N+](=O)[O-])c3)cs2)CC1	Papp	×10⁻⁶ cm/s	=	568
Fc1cc(Nc2nc(-c3ccncc3)nc3ccccc23)ccc1-c1ccncc1	Papp	×10⁻⁶ cm/s	=	15.4
O=C1NCc2cc(-c3cc4c(ccn4Cc4ccncc4)c(N4CCOCC4)n3)ccc21	Papp	×10⁻⁶ cm/s	=	189
O=c1cc(CN2CCCN(c3ccc(C(F)(F)F)cn3)CC2)nc2ccccn12	Papp	×10⁻⁶ cm/s	>	1000
O=C(Nc1ccc(Cl)cc1)C(NS(=O)(=O)c1cccs1)c1ccccc1 (stereo unspecified)	Papp	×10⁻⁶ cm/s	<	1
CN1CCN(c2cc(-c3nc(Nc4ccc(F)c(F)c4)c4ccccc4n3)ccn2)CC1	Papp	×10⁻⁶ cm/s	>	1000
NC(=O)C1CCN(c2nc(-c3ccc4c(c3)OCCCO4)cs2)CC1	Papp	×10⁻⁶ cm/s	=	629
Cc1ccc(NS(=O)(=O)c2cc3c(cc2N[C@H](C)CO)NC(=O)CC3)cc1C	Papp	×10⁻⁶ cm/s	=	273
O=C(CNC(=O)c1cnccn1)NC1CCCc2c1[nH]c1ccc(Cl)cc21 (stereo unspecified)	Papp	×10⁻⁶ cm/s	>	1000
CCC(=O)NC(c1cccs1)c1cc([N+](=O)[O-])c2cccnc2c1O (stereo unspecified)	Papp	×10⁻⁶ cm/s	=	36.3
Cc1cccc(-n2cnc3cc(C(=O)N4CCCC(C)(C)C4)ccc32)c1	Papp	×10⁻⁶ cm/s	>	1000
COc1ccc(C2Nc3ccccc3C(=O)N2Cc2cccnc2)cc1COc1c(C)cc(NC(C)=O)cc1C (stereo unspecified)	Papp	×10⁻⁶ cm/s	>	1000
NC(=O)C1CCN(c2nc(-c3cccc(Cl)c3)cs2)CC1	Papp	×10⁻⁶ cm/s	>	1000
COc1ncccc1-c1cc2c(ccn2CC2CCN([S+](C)(=O)[O-])CC2)c(N2CCOCC2)n1	Papp	×10⁻⁶ cm/s	>	1000
NC(=O)C1CCN(c2ncc(-c3cccc(N4CCCCC4)c3)s2)CC1	Papp	×10⁻⁶ cm/s	=	924
Cc1ccc(C(N)=O)cc1Nc1nccc(-c2cn(C(C)C)c3cnccc23)n1	Papp	×10⁻⁶ cm/s	=	877
CCc1ccc(OC(C)C(=O)N2CCC(c3nc4ccccc4o3)CC2)cc1 (stereo unspecified)	Papp	×10⁻⁶ cm/s	>	1000
Cc1ccc(S(=O)(=O)Nc2cnccc2C(=O)Nc2ccc(N3CCOCC3)cc2)cc1	Papp	×10⁻⁶ cm/s	=	53.3
Cc1ccc(-c2cc(C(=O)Nc3ccc(-n4cncn4)cc3)c3ccccc3n2)cc1C	Papp	×10⁻⁶ cm/s	<	1
CC(C)(C#N)c1ccc(N2C(=O)OCc3cnc4ccc(-c5cnc6ccccc6c5)cc4c32)cc1	Papp	×10⁻⁶ cm/s	=	47.5
Cc1noc(C)c1-c1ccc(-c2cc(C(N)=O)c(NC(N)=O)s2)c(O[C@H]2CCNC2)c1	Papp	×10⁻⁶ cm/s	<	1
CC(O)(C#Cc1ccc2c(c1)N(c1nc(N)ncc1Cl)CC2)c1nccs1 (stereo unspecified)	Papp	×10⁻⁶ cm/s	=	516
O=C(CCCN1CCC(n2c(=O)[nH]c3ccccc32)CC1)c1ccc(F)cc1	Papp	×10⁻⁶ cm/s	=	952
COc1cccc(CNc2ccc([S+](=O)([O-])Nc3cc4ccccc4s3)cc2)c1O	Papp	×10⁻⁶ cm/s	=	888
COc1ccc(-c2nc(-c3c(C)noc3C)cc3c2cc(C)n3CCN(C)C)cc1OC	Papp	×10⁻⁶ cm/s	>	1000
Cc1ccc(-n2c(C)cc(C3=NNC(=NC4CC4)SC3)c2C)cc1C	Papp	×10⁻⁶ cm/s	>	1000
Cc1ccc(S(=O)(=O)Nc2ccc(C(=O)Nc3nc(-c4ccc(Cl)cc4)cs3)cc2)cc1	Papp	×10⁻⁶ cm/s	=	11

These entries and their values trace back to PubChem BioAssay AID1508612.
